Assay: physchem
Conditions: pH 7.4
endpoint label: solubility (µM)
Hi! Could you send only the number? It should be in µM, unit omitted.

Lookup: Return the recorded solubility value; entry: CC(c1ccc(-c2cnc3c(-c4ccc(S(N)(=O)=O)c5ccccc45)cnn3c2)cc1)N1CCCC1 (stereo not shown) [Compound 23]
Found: 14

###

Experiment: PAMPA permeability
This section presents molecules with their documented PAMPA (x10^−6 cm/s) values.

Solved cases (2 shown):
NS(=O)(=O)c1ccc(-c2cnn3cc(-c4ccc(N5CCNCC5)nc4)cnc23)c2ccccc12 [Compound 12]: 8.3 x10^−6 cm/s
NS(=O)(=O)c1ccc(-c2cnn3cc(-c4ccc(CN5CCCC5)cc4)cnc23)c2ccccc12 [Compound 22]: 467 x10^−6 cm/s

Lookup: Respond only with PAMPA (x10^−6 cm/s) recorded for NS(=O)(=O)c1ccc(-c2cnn3cc(-c4ccc(OCCN5CCCC5)cc4)cnc23)c2ccccc12 [Compound 18]
Found: 317 x10^−6 cm/s

Lookup: State its PAMPA (x10^−6 cm/s) for this molecule: CC(c1ccc(-c2cnc3c(-c4ccc(S(N)(=O)=O)c5ccccc45)cnn3c2)cc1)N1CCCC1 (stereo not drawn) [Compound 23]
Found: 1116.0 x10^−6 cm/s

Lookup: Query PAMPA (x10^−6 cm/s) for CC(C)(CN1CCCCC1)Oc1ccc(-c2cnc3c(-c4ccc(S(N)(=O)=O)c5ccccc45)cnn3c2)cc1 [Compound 17]
Found: 1920.5 x10^−6 cm/s

Lookup: Specify PAMPA (x10^−6 cm/s) for NS(=O)(=O)c1ccc(-c2cnn3cc(-c4ccc(C5CCNCC5)cc4)cnc23)c2ccccc12 [Compound 15] and stop.
Found: 78.6 x10^−6 cm/s

Lookup: Quote PAMPA (x10^−6 cm/s) reported for NS(=O)(=O)c1ccc(-c2cnn3cc(-c4ccc(OCCN5CCCCC5)nc4)cnc23)c2ccccc12 [Compound 14] please.
Found: 364.7 x10^−6 cm/s

Lookup: Hello, please tell me recorded PAMPA (x10^−6 cm/s) for this one: CN(C)CCOc1ccc(-c2cnc3c(-c4ccc(S(N)(=O)=O)c5ccccc45)cnn3c2)cn1 [Compound 13]
Found: 8.8 x10^−6 cm/s

Lookup: State its PAMPA (x10^−6 cm/s) for this molecule: CC(C)(N)c1ccc(-c2cnc3c(-c4ccc(S(N)(=O)=O)c5ccccc45)cnn3c2)cc1 [Compound 20]
Found: 9.4 x10^−6 cm/s
